All figures here come from PubChem BioAssay (NCI).

# Tested on: K-562 leukemia
# Measurement Notes: NCI-60 one-dose screen, 48 h (100 = growth as untreated, 0 = no growth, -100 = all killed)
# Experimental Setup: 10 µM unless noted
This is part of a sample that, as a whole, favours compounds with a hit. Of some 83,000 tested, about 20% had one in any assay.
Returns yes (1) if the recorded growth is greater than or equal to 50%, and no (0) otherwise.

>>> classification("CC[C@H](Nc1ncnc2nc[nH]c12)c1nc2cccc(NCc3ccc(C(=O)NO)o3)c2c(=O)n1-c1ccccc1")
"yes (1)"
>>> classification("O=C(CCC(=O)N(CCO)CCO)N(CCO)CCO")
"yes (1)"
>>> classification("COc1cc(/C=C/C(=O)/C=C(/C=C/c2ccc(OC(C)=O)c(OC)c2)OB(F)F)ccc1OC(C)=O")
"no (0)"
>>> classification("COc1ccc2nc3cc(Cl)ccc3c(NCCCNC(C)=O)c2c1")
"no (0)"
>>> classification("CCOc1ccc2nc3ccc(Cl)cc3nc2c1")
"yes (1)"
>>> classification("CC(O)CN(CC(C)O)N(CC(C)O)CC(C)O (stereo unspecified)")
"yes (1)"
>>> classification("COC(c1ccccc1)C(Br)C(=O)c1ccccc1 (stereo unspecified)")
"yes (1)"
>>> classification("N/C(=N\\O)c1ccncc1")
"yes (1)"

Qu. Is it the case that `CCCCCCCCCCCCCCCCCC(=O)Nc1ccc(O)cc1` has growth reaching or exceeding 50%?
Ans. yes (1)

Qu. Is it the case that `COc1cc(OC)c(NC(=O)n2ncc3cc(Nc4ncnc5ccccc45)ccc32)cc1Cl` has growth reaching or exceeding 50%?
Ans. yes (1)

Qu. Is it the case that `Clc1ccc(I)c2ccccc12` has growth reaching or exceeding 50%?
Ans. yes (1)

Qu. Is it the case that `O=C(CCl)c1ccc2c(c1)CCCC2` has growth reaching or exceeding 50%?
Ans. yes (1)

Qu. Is it the case that `CN1C(=O)C(=Cc2coc3ccc(Br)cc3c2=O)C(=O)N(C)C1=O` has growth reaching or exceeding 50%?
Ans. yes (1)

Qu. Is it the case that `COc1cc(-c2nc3c(c(C)nc4c3nnn4-c3ccccc3)c(=O)o2)cc(OC)c1OC` has growth reaching or exceeding 50%?
Ans. yes (1)

Qu. Is it the case that `COc1ccccc1Cn1cc2c(c1)-c1oncc1CC2` has growth reaching or exceeding 50%?
Ans. no (0)

###

The entries below come with measured growth values attached.
# Tested on: SK-OV-3 ovarian
# Measurement Notes: NCI-60 one-dose screen, 48 h (100 = growth as untreated, 0 = no growth, -100 = all killed)
# Experimental Setup: 10 µM unless noted
The panel holds about 83,000 compounds, 20% with a hit somewhere; the sample as a whole holds those more often. Activity calls are given as the source filed them. How the source made its calls: active means growth percent below 10; inactive means the rest.

Observe how each entry below is paired with its result.
>>> obs_value("CCCCCC(=C/c1ccccc1)/C=N/N=C(N)N")
"76.9% (inactive)"
>>> obs_value("Cc1ccc(S(=O)(=O)N/N=C2\\CC3CCC2C3)cc1 (stereo not drawn)")
"93.9% (inactive)"

Shifting focus to the compound that follows.
Qu. Write down growth measured for item `CC1C(=O)CCCC1=O`
Ans. 108% (inactive)

###

# Test system: SF-539 CNS
# Measurement Notes: NCI-60 one-dose screen, 48 h (100 = growth as untreated, 0 = no growth, -100 = all killed)
# Experimental Setup: 10 µM unless noted
This is part of a sample that, as a whole, favours compounds with a hit. Of some 83,000 tested, about 20% had one in any assay.
Readout Kind: growth (%)
Could you give me the number in %? Just the number is fine.

Observe how each entry below is paired with its result.
>>> obs_value("CC(=O)Nc1nc(C)c(C(=O)NN)s1")
91.3
>>> obs_value("Cc1cc2c(-c3nc4ccccc4n3C)c(O)c(O)cc2c(O)c1-c1c(C)cc2c(-c3nc4ccccc4n3C)c(O)c(O)cc2c1O")
22.1
>>> obs_value("CCOC(=O)C1C(=O)C(=O)N(C(C)C)C1C(=O)OCC (configuration not stated)")
99.8
>>> obs_value("O=C1OC(c2ccc(-c3ccccc3)cc2)=C/C1=C/c1c2ccccc2cc2ccccc12")
110
>>> obs_value("CCCC(=O)NNc1[nH]c(-c2cc(OC)c(OC)c(OC)c2)cc1C(=O)OCC")
91.6
>>> obs_value("CCOC(=O)C1=C(c2ccccc2)NC(=O)NC1CN1C(=O)c2ccccc2C1=O (configuration not stated)")
106
>>> obs_value("CCCCCCCCCCCCCCCCNC(=O)Nc1ccc(C)c(NC(=O)NCCCCCCCCCCCCCCCC)c1")
110
>>> obs_value("C[C@]12CC[C@H]3[C@@H](CC[C@H]4C[C@@H](O)CC[C@@]43C)[C@@H]1CC(=O)C2")
92.7
>>> obs_value("N=C(c1ccccc1)N(Cc1ccccc1)Cc1ccccc1")
103
>>> obs_value("NCCCOc1cc2ccccc2cc1C(=O)Nc1ccc(Cl)cc1OC(=O)c1cc2ccccc2cc1OCCCN")
-89.6

Qu. Write down growth measured for item `CC(=O)N(N=O)c1ccc([N+](=O)[O-])cc1Cl`
Ans. 72.7

Qu. Write down growth measured for item CCCCCCCCCCCC(=O)OC(C)C(=O)Nc1ccccc1 (configuration not stated)
Ans. 98.9

###

# System: SK-MEL-5 melanoma
# Measurement Notes: NCI-60 one-dose screen, 48 h (100 = growth as untreated, 0 = no growth, -100 = all killed)
# Experimental Setup: 10 µM unless noted
The panel holds about 83,000 compounds, 20% with a hit somewhere; the sample as a whole holds those more often.
Returns yes (1) if the recorded growth is greater than or equal to -10%, and no (0) otherwise.

>>> classification("COc1ccccc1C(=O)Nc1cccc(-c2cc(=O)c3c(OC)c(OC)c(OC)cc3o2)c1")
"yes (1)"
>>> classification("Cc1nc2c(nnn2-c2ccccc2)c2nc(-c3ccccc3)oc(=O)c12")
"yes (1)"
>>> classification("C/C=C/C/C=C/[C@H](C)C[C@H](O)[C@@H]1C[C@@H]2O[C@H]2/C=C/[C@H](O)[C@@H](O)/C=C/C[C@H](C)CC(=O)O1")
"yes (1)"
>>> classification("COC(=O)c1ccc2[nH]c(O)c(C(=Nc3ccc(N(C)C(=O)CN4CCN(C)CC4)cc3)c3ccc([N+](=O)[O-])cc3)c2c1")
"yes (1)"
>>> classification("CCOC(=O)C1CCCN1C(=O)C1(NC(C)=O)CCCC1 (stereo not drawn)")
"yes (1)"

Qu. Is it the case that `CCCCCCCCCCCCc1ccc([N+](CC)(CC)CC)cc1` has growth reaching or exceeding -10%?
Ans. no (0)

Qu. Is it the case that `COc1cc2c(c3c1c(=O)c1cccc(F)c1n3C)C=CC(C)(C)O2` has growth reaching or exceeding -10%?
Ans. yes (1)

Qu. Is it the case that `CC1=C[C@@H]2c3c(c(O)c(O)c4oc5cc(O)cc(O)c5c(=O)c34)[C@@H](c3cc(O)c(O)c4oc5cc(O)cc(O)c5c(=O)c34)[C@@H]2C(C)(C)C1` has growth reaching or exceeding -10%?
Ans. no (0)

Qu. Is it the case that `O=C(NCCO)C(F)(F)F` has growth reaching or exceeding -10%?
Ans. yes (1)

Qu. Is it the case that O=P(OCCCl)(OCCCl)C(O)c1ccccc1Cl (stereo not drawn) has growth reaching or exceeding -10%?
Ans. yes (1)

Qu. Is it the case that `COc1ccccc1CNCCCN1C(=O)c2ccc3c4c(ccc(c24)C1=O)C(=O)N(CCCNCc1ccccc1OC)C3=O` has growth reaching or exceeding -10%?
Ans. no (0)

Qu. Is it the case that `CCN(CC)CCOC(=O)c1cccnc1` has growth reaching or exceeding -10%?
Ans. yes (1)

Qu. Is it the case that `CCCCCc1ccnc(CC(=O)c2ccc(OC)cc2)c1` has growth reaching or exceeding -10%?
Ans. yes (1)

Qu. Is it the case that `Cc1ccc2c(c1)C(=O)CCS2` has growth reaching or exceeding -10%?
Ans. yes (1)

Qu. Is it the case that `CCCCS(=O)(=O)c1cc(Nc2ccc(O)c3c2C(=O)c2ccccc2C3=O)ccc1C` has growth reaching or exceeding -10%?
Ans. no (0)

###

The entries below come with measured growth values attached.
# System: TK-10 renal
# Measurement Notes: NCI-60 one-dose screen, 48 h (100 = growth as untreated, 0 = no growth, -100 = all killed)
# Experimental Setup: 10 µM unless noted
This is part of a sample that, as a whole, favours compounds with a hit. Of some 83,000 tested, about 20% had one in any assay.
Could you give me the number in %? Just the number is fine.

Observe how each entry below is paired with its result.
>>> obs_value("NC(N)=N/N=C/c1cccc(Br)c1")
100
>>> obs_value("CC(=O)N(N=O)c1ccc([N+](=O)[O-])cc1Cl")
130
>>> obs_value("N#Cc1ccc(NC2c3ccccc3CC2O)cc1 (stereo not given)")
119
>>> obs_value("COc1ccc(-n2nnnc2-c2cn[nH]c2C(F)(F)F)cc1")
113

Shifting focus to the compound that follows.
Qu. Write down growth measured for item `CC(C)OC(=O)c1ccc2n1CCCc1cnc(Nc3ccccc3)nc1-2`
Ans. 85.3
